Target: T1, RADIL, Q96JH8
T1 sequence (Q96JH8 971-1071, limits assumed, looked up): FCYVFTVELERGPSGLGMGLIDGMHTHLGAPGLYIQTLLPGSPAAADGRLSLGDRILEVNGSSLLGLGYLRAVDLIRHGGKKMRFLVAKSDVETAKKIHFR
Test: holdup assay
Parameters: key: below the threshold = too weak to quantify, mostly under pKd 3.1 to 4
Conditions: plain residues with an end cap or a label only (N-terminal biotin on a linker: ahx)
reported.property: pKd

| binder | readout.value |
| --- | --- |
| ESLLLGPSNF [SHROOM4, Q9ULL8] | below the threshold |
| TVICWPGSLV [LNX2, Q8N448] | 4.91 |
| NRKREIFSNF [NHERF2, Q15599] | below the threshold |
| PSASCAVTAA [PDLIM4, P50479;P50479-2] | below the threshold |
| RAVEEEESRF [PSCDBP, O60759] | below the threshold |
| RRRKRKRTYL [HPV49-L2, P36762] | below the threshold |
| SDSSGQEYSL [KCTD3, Q9Y597] | below the threshold |
| LSDPSVSTVV [GRIN1, Q05586;Q05586-2] | 3.98 |
| GYDWGPATDL [TJP3, O95049] | below the threshold |
| HNAFLSVTTV [PDZRN4, Q6ZMN7] | 3.61 |
